Hello, the source for this data is paper PMC4386733, in case you need it.

systemUnderTest: hSTING^H232 (aa 140–379) (Homo sapiens, UniProt Q86WV6, H232R)
Sequence (Q86WV6 140-379 H232R): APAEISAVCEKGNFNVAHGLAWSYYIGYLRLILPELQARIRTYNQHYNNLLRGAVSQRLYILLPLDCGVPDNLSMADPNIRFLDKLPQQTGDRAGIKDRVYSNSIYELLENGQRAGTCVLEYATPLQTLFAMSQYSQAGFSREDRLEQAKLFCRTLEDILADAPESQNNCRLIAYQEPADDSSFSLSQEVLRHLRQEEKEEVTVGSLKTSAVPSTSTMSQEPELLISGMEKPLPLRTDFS
testDetails: ITC binding to hSTING^H232
experimentalSetup: complex printed as hSTING^H232 in b72 (Figure 4C)
observedProperty: Kd (nM)
Express your answer in nM, writing the number without its unit.

Request: Need Kd, item Nc1nc2c(ncn2[C@@H]2O[C@@H]3COP(=O)(O)O[C@@H]4[C@H](O)[C@@H](COP(=O)(O)O[C@@H]2[C@@H]3O)O[C@H]4n2cnc3c(N)ncnc32)c(=O)[nH]1
Result: 170
